Biological target: pooled human IgG (human IgG1, 2, 3 and 4)
observable: Enzyme Activity Endpoint Assay: scIgG (ng/µL)
Numbers only, in ng/µL.

PRT-500 (protein) MVTSVWTKGVTPPADFTQGEDVFHAPYVANQGWYDITKAFDGGDDLLCGAATAGNMLHWWFDQNKEYIEAYLKKHPEKQKIMFGDQELLDVRKAINTKGSQKNSELFNYFRDKAFPNLSARRLGVMPDLVLDMFINGYYLNVTKTQTTDVNRTYQEKDKRGGIFDAVFTRGDQSKLLTSRHDLKNKGLKEISDLIKQELTEGKALGLSHTYANVRINHVINLWGADFDSDGNLKAIYVTDSDSNASIGMKKYFVGVNSAGKVAISAKEIKEDNIGAQVLGLFTLSTGQDIWNQTNLEHHHHHH	0
PRT-545 (protein) MANQEIRYSEETPKTITSVWTKGVTPPTDFIKNEDVLHAPYIANQGWYDITKTFNGKDDLLCGAATAGNMLHWWFDQNKEEIERYLKKHPEKQKINFNGEQMFDVKEAIDTKDSQTDSALFEYFKDKAFPYLSTKHLGVFPDHVIDMFINGYRLSLTNHGPTPVKRGTKDPRGGIFDAVFTRGDQSKLLTSRHDFKEKTLKEISDLIKQELTEGKALGLSHTYANVRINHVINLWGADFDSEGNLEAIYVTDSDSNASIGMKKYYVGVNSAGKVAISAKEIEGDNIGAQVLGLFTLSTGQDIWEQTNLEHHHHHH	0
PRT-578 (protein) MANQEIRYSKATPKVITSVWTKGVTPPEDFTYNEDVFHAPYLPNQGWYDITKTFNGKDDLLCGAATAGNMLHWWFDQNKEQIERYLKEHPEKQKINFNGEQMFDVKEAIDTKDSQTNSKLFEYFKDKAFPYLSTKHLGVFPDHVIDMFINGYRLSLTNHGPTPVKEQNKDPRGGIFDAVFTRGDQSKLLTSRHDFKEKTLKEISDLIKQELKEGKALGLSHTYANVRINHVINLWGADFDAEGNLEAIYVTDSDSNASIGMKKYYVGVNSAGKVAISAKEIEGDNIGAQVLGLFTLSTGKDIWEQTNLEHHHHHH	0

Read the next record carefully.
-- ask Fill blank: measured Enzyme Activity Endpoint Assay: scIgG of the protein PRT-415 (protein) MTITSVWTKGVTPPTPEDFRYNNEDVLHAPYVANQGWYDITKTFDGKDNLLCGAATAGNMLHWWFDQNKEEIERYLKKHPEKQKIIFNNQELFDVKAAIDTKDSQTNSKLFNYFLDKAFPNLSARQLGVMPDLVLDMFINGYYLNLGKTQSTDVNRPYQDKDKRGGIFDAVFTRGDQTTLLTARHDLKNKGLNEISDLIKQELTEGKALALSHTYANVRINHVINLWGADFDAEGNLIAIYVTDSDANASIGMKKYFVGVNANGKVAISAKKIEGDNIGAQVLGLFTLSTGQDIWQKLS is ____.
-- reply 630
